Cited source: ChEMBL document CHEMBL3414459

Activity by entry:
procedure-text: Pro-oxidant activity assessed as hydroxyl radical generation through deoxyribose degradation by measuring change in absorbance at 0.83 mM by TBARS based spectrophotometry
Assay type: ADME
measurement-setup: 830 µM
observation-type: Activity

{"compound-structure-string": "Oc1ccc(/C=N/NC(=S)Nc2ccccc2)cc1", "value-reported": 0.094}
{"compound-structure-string": "Oc1cc(/C=N/NC(=[Se])Nc2cccc3ccccc23)cc(O)c1O", "value-reported": 0.067}
{"compound-structure-string": "NNC(=[Se])Nc1cccc2ccccc12", "value-reported": 0.064}
{"compound-structure-string": "Oc1ccc(/C=N/NC(=[Se])Nc2cccc3ccccc23)cc1O", "value-reported": 0.079}
{"compound-structure-string": "Oc1ccc(/C=N/NC(=[Se])Nc2ccccc2)cc1", "value-reported": 0.087}
{"compound-structure-string": "Oc1ccc(/C=N/NC(=[Se])Nc2ccccc2)cc1O", "value-reported": 0.097}
{"compound-structure-string": "Oc1cc(O)c(/C=N/NC(=S)Nc2ccccc2)cc1O", "value-reported": 0.067}
